Test system: blackgrass (Alopecurus myosuroides)
Assay: Test A postemergence, visual injury rating 0-100
Type: in vivo
Settings: 31 g ai/ha, 0 to 100 scale

[
  {
    "smiles_data": "CC1=[N+]([O-])[C@@H](C(=O)Nc2cccc(F)c2F)[C@H](c2cccc(C(F)(F)F)c2)C1",
    "Blackgrass plant response rating": 20
  },
  {
    "smiles_data": "CC1=[N+]([O-])[C@H](C(=O)Nc2cccc(F)c2F)[C@@H](c2ccc(C)cc2)C1",
    "Blackgrass plant response rating": 80
  },
  {
    "smiles_data": "CC1=[N+]([O-])[C@@H](C(=O)Nc2cccc(F)c2F)[C@H](c2cccc(OC(C)C)c2)C1",
    "Blackgrass plant response rating": 0
  },
  {
    "smiles_data": "CC1=[N+]([O-])[C@H](C(=O)Nc2cccc(F)c2F)[C@@H](c2ccc(F)c(OC(F)(F)C(F)F)c2)C1",
    "Blackgrass plant response rating": 60
  },
  {
    "smiles_data": "CC1=[N+]([O-])[C@H](C(=O)Nc2cccc(F)c2F)[C@@H](c2ccc(C(F)(F)F)cc2)C1",
    "Blackgrass plant response rating": 30
  }
]
